Measured Inhibition accompanies every entry in the list below.
- System: Acinetobacter baumannii
- PROTOCOL: Antibacterial activity against Acinetobacter baumannii ATCC 19606 (CO-ADD:GN_034); MIC in CAMBH media using NBS plates, by Resazurin F(560/590)
- Format: functional
- CONDITION INFO: Concentration 20 uM, ASSAY_TEST Inhibition of Bacterial Growth, detection method Resazurin, Fluorescence (ex560/em590), MEDIA CAMHB, plate type 384well, CORNING #3640, time 18 hr
Quick note: give the figure in %, leave out the unit.

Take a look at these entries with their results.
COC(=O)NC1C(C)OC(OC2C/C=C(/C)C3C=CC4C(OC5CC(OC6CCC(OC7CC(O)C(OC8CCC(O)C(C)O8)C(C)O7)C(C)O6)C(OC(C)=O)C(C)O5)C(C)CC(C)C4C3(C)/C(O)=C3/C(=O)OC4(CC(C=O)=CC(O)C4/C=C\2C)C3=O)CC1(C)[N+](=O)[O-] (stereo unspecified); -13.61
COc1cc2c(c(OC)c1OC)-c1ccc(OC)c(=O)cc1[C@@H](NC(C)=O)CC2; -6.56
COc1cc(/C=C/C(=O)CC(=O)/C=C/c2ccc(O)c(OC)c2)ccc1O; -16.03
CC[C@]1(O)C[C@H]2CN(CCc3c([nH]c4ccccc34)[C@@](C(=O)OC)(c3cc4c(cc3OC)N(C=O)[C@H]3[C@@](O)(C(=O)OC)[C@H](OC(C)=O)[C@]5(CC)C=CCN6CC[C@]43[C@@H]65)C2)C1.O=S(=O)(O)O [VINCRISTINE SULFATE]; -6.71

Exam item: Dear colleague, I am looking for the recorded Inhibition of the following compound: COC1/C=C\C=C(/C)C(=O)NC2=CC(=O)C(N)=C(CC(C)CC(OC)C(O)C(C)/C=C(\C)C1OC(N)=O)C2=O (stereo unspecified)
Marked response: -32.33

Exam item: Request the reported Inhibition associated with `COc1c2occc2cc2ccc(=O)oc12`
Marked response: -6.09

Exam item: Entry CC1(C)C(=O)N2c3ccccc3C3(CC(N4C(=O)c5ccccc5C4=O)C(=O)O3)C2N1C(=O)OCc1ccccc1 (stereo unspecified) : reported Inhibition = ?
Marked response: -16.59

Exam item: Item `COc1cc2c3c(c4ccc(OC)c(OC)c4c2cc1OC)CN1CCC[C@@H]1C3` has what recorded Inhibition?
Marked response: -4.59

Exam item: Inhibition for CC1(C)CC23C4COC(=O)C2CCC1C3CC4=O (stereo unspecified) ?
Marked response: -5.6

Exam item: Which Inhibition is listed for `O=C(O)CCCCCCC[C@@H](O)[C@@H](O)CCCCCCO` ?
Marked response: -9.87

Exam item: // lookup Inhibition for `Cc1cc2nc3[nH]c(=O)[nH]c(=O)c3nc2cc1C`
Marked response: -0.84

Exam item: Which measured Inhibition value corresponds to `COC(=O)[C@@H]1[C@H]2C[C@@H]3c4[nH]c5ccccc5c4CCN3C[C@@H]2CC[C@@H]1O` ?
Marked response: -4.53

Exam item: # query: Inhibition of entry `CC1=C2[C@H]3OC(=O)[C@@H](C)[C@@H]3CC[C@@]2(C)C=C/C1=N\O`
Marked response: -5.16

Exam item: Item CC(C)=CC(=O)OC1C2C(C)C(=O)OC2C(O)C(C)C2C=CC(=O)C21C (stereo unspecified) has what recorded Inhibition?
Marked response: -2.16

Exam item: # input compound: `CCCCCC[C@H]([C@H](C)O)n1cnc2c(N)ncnc21.Cl` ; wanted: its Inhibition
Marked response: -17.98

Exam item: Report Inhibition for C=C1C(=O)OC2CC3(C)CCCC(C)C3=CC12 (stereo unspecified) please.
Marked response: -5.59
